Biological target: CGRP receptor (calcitonin receptor-like receptor in complex with receptor activity-modifying protein 1) (human (endogenous in SK-N-MC), UniProt Q16602 23-461; O60894 27-148)
Sequence (Q16602 23-461, chain 1 of 2): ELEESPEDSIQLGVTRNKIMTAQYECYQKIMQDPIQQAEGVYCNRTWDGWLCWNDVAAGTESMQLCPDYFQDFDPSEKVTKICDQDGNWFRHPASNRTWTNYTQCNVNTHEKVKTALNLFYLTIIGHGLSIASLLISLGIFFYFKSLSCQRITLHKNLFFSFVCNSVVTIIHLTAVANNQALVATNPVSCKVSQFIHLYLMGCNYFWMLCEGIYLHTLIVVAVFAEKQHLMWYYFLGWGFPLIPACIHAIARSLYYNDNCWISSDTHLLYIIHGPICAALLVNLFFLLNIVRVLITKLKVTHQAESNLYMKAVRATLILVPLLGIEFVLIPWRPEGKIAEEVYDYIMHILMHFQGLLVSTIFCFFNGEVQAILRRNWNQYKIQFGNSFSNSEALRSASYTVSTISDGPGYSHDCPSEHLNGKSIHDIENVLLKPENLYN
Sequence (O60894 27-148, chain 2 of 2): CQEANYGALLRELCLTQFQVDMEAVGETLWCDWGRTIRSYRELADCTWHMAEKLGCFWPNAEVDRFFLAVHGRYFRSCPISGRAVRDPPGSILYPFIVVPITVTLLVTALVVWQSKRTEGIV
Assay: radioligand binding; displacement of ^125I-CGRP from SK-N-MC cell membranes by unlabelled peptides, microcentrifugation-based binding assay; [Cys^5]-CGRP and its control on another batch of SK-N-MC cells
Details: one partner purified
Bridge positions count the residues as written; N and C are the ends. Ends that are not written are not given here.
Give pKi for every item shown.
Lab note: write the figure by itself, no unit.

[Q] Using the record for CCDTATCVTHRLAGLLSRSGGVVKNNFVPTNVGSKAF-NH2 (disulfide 2-7; also: Cys1 Acm protected, removal not given here) [[Cys^1]-CGRP] , report its pKi.
[A] 9.55

[Q] Using the record for ACDAATCVTHRLAGLLSRSGGVVKNNFVPTNVGSKAF-NH2 (disulfide 2-7) [[Ala^4]-CGRP] , report its pKi.
[A] 9.4

[Q] Using the record for ACDTACCVTHRLAGLLSRSGGVVKNNFVPTNVGSKAF-NH2 (disulfide 2-7; also: Cys6 Acm protected, removal not given here) [[Cys^6]-CGRP] , report its pKi.
[A] 9.33

[Q] Using the record for ACDTADCVTHRLAGLLSRSGGVVKNNFVPTNVGSKAF-NH2 (disulfide 2-7) [[Asp^6]-CGRP] , report its pKi.
[A] 7.5

[Q] Using the record for ACDTAACVTHRLAGLLSRSGGVVKNNFVPTNVGSKAF-NH2 (disulfide 2-7) [[Ala^6]-CGRP] , report its pKi.
[A] 8.57

[Q] Using the record for ACDTAKCVTHRLAGLLSRSGGVVKNNFVPTNVGSKAF-NH2 (disulfide 2-7) [[Lys^6]-CGRP] , report its pKi.
[A] 7.76

[Q] Using the record for ACDTASCVTHRLAGLLSRSGGVVKNNFVPTNVGSKAF-NH2 (disulfide 2-7) [[Ser^6]-CGRP] , report its pKi.
[A] 9.12
